System: MCF7
Assay: Antiproliferative activity against human MCF7 cells after 48 hrs by MTT assay
Format: functional, cell-based
Conditions: MCF7, 48 h
Provide the recorded pIC50 for the entries that follow.
# pIC50 = -log10(concentration in molar units)

The measured pIC50 associated with N=C(N)N/N=C(/C=C/c1ccc(F)cc1)c1ccccc1 reads 5.60

Lab note: measured pIC50 of N=C(N)N/N=C(/C=C/c1ccccc1Cl)c1ccccc1 was 5.38

Input COc1ccccc1/C=C/C(=N/NC(=N)N)c1ccccc1 . Output pIC50: 5.14

The molecule identified as N=C(N)N/N=C(/C=C/c1ccccc1F)c1ccccc1 registered its pIC50 at 5.41

Looking up N=C(N)N/N=C(/C=C/c1cccc(F)c1)c1ccccc1 , I see its pIC50 listed as 4.80

// recorded pIC50 for Cc1ccc(/C=C/C(=N/NC(=N)N)c2ccccc2)cc1 : 4.80

# pIC50 (molecule: N=C(N)N/N=C(/C=C/c1cccc2ccccc12)c1ccccc1 ) is 5.80

Record N=C(N)N/N=C(/C=C/c1ccccc1)c1ccc(Cl)cc1 . Reported pIC50: 6.46

Lookup result for N=C(N)N/N=C(/C=C/c1ccccc1)c1ccc(Br)cc1 ; measured pIC50: 7.05

COc1ccc(/C=C/C(=N/NC(=N)N)c2ccccc2)cc1 yielded pIC50 of 4.85

The measured pIC50 associated with N=C(N)N/N=C(/C=C/c1ccccc1)c1ccccc1 reads 4.77

Notebook: N=C(N)N/N=C(/C=C/c1ccc(-c2ccccc2)cc1)c1ccccc1 , pIC50 read as 6.10

Field pIC50 (entry N=C(N)N/N=C(/C=C/c1ccc(Br)cc1)c1ccccc1 ) reads 6.60
